# testedSystem: T1, ActRIIB-Fc homodimer (UniProt Q13705 19-137)
# T1 construct: extracellular domain; also called ActRIIB homodimer
# T1 sequence (looked up): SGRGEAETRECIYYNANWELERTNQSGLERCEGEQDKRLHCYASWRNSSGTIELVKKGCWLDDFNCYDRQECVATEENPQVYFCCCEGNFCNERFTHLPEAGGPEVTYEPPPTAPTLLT
# assayText: Biacore SPR
Rule: koff of 0.0002 s⁻¹ or more gives Met; anything lower gives Not met.

Below, 5 binders whose answers are already recorded.
{"binder": "BMP10 (ligand, UniProt O95393 317-424, looked up) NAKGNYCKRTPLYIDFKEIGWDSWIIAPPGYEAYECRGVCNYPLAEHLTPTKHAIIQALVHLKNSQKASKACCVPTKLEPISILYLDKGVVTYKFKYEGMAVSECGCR", "category": "Met"}
{"binder": "BMP9 (ligand, UniProt Q9UK05 320-429, looked up, also called GDF2) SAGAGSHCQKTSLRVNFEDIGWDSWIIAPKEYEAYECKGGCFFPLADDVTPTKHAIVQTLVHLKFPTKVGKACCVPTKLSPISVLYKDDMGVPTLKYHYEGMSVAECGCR", "category": "Met"}
{"binder": "activin B (ligand, UniProt P09529 293-407, looked up) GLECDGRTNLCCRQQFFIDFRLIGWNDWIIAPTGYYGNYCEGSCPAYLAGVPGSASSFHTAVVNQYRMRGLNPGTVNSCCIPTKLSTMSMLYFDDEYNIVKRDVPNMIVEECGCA", "category": "Not met"}
{"binder": "GDF3 (ligand, UniProt Q9NR23 251-364, looked up) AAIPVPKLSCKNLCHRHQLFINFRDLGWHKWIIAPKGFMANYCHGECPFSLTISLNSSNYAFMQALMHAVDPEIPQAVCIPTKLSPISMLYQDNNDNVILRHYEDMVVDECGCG", "category": "Met"}
{"binder": "activin A (ligand, UniProt P08476 311-426, looked up) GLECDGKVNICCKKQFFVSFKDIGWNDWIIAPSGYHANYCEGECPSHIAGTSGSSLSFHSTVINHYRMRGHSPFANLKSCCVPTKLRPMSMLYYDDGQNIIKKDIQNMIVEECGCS", "category": "Not met"}

Here is another binder to look at.
Quick check, koff >= 0.0002 s⁻¹? GDF11 (ligand, UniProt O95390 299-407, looked up, also called BMP11) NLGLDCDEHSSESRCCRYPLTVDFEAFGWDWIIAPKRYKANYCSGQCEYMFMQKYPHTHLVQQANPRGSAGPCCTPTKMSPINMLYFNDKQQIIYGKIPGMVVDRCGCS
Met
